# METHOD: pharmacokinetics of SR 4554 in EMT-6 tumor-bearing mice (HPLC)
# Assay type: in vivo, mouse
# TEST_PARAMETERS: mouse, plasma; read-out: Cmax, plasma
READOUT_LABEL: Cmax (µg/mL)
Numbers only here, please. The scale is µg/mL.

Q. Requested read-out: Cmax. Entry: O=C(Cn1ccnc1[N+](=O)[O-])NCC(O)C(F)(F)F (racemic) [SR 4554]
A. 145

###

# METHOD: log P (lipophilicity)
# Type: physicochemical
# logP values compiled below
The response must contain the number and no unit.

>  <COMPOUND>
O=C(Cn1ccnc1[N+](=O)[O-])NCC(O)C(F)(F)F (racemic)

>  <logP>
-0.2

$$$$

Query compound follows.
Q. Requested read-out: logP. Entry: O=C(Cn1ccnc1[N+](=O)[O-])N(CCO)CC(O)C(F)(F)F (centres unmarked)
A. -0.36
